Reported Ki is given for each of the following compounds.
Target: serotonergic receptors (Rattus norvegicus)
Sequence (P19327 1-422): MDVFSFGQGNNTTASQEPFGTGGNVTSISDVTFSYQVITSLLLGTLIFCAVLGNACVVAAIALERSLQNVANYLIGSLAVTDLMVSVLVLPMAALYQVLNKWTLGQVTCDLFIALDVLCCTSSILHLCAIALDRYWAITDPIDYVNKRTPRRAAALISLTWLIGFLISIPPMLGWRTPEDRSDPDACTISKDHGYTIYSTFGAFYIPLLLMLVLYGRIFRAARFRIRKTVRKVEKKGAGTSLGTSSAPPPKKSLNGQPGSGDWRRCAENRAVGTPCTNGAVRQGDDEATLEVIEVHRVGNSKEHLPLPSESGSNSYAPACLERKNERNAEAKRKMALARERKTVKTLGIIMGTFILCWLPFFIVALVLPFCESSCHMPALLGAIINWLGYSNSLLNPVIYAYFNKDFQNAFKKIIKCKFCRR
reported.endpoint: Ki

[[record]]
smiles_notation = "COc1cc2c(cc1OC)C(c1ccc(N)c(C)c1)=NN(c1ncon1)[C@H](C)C2"
target_under_test = "serotonergic receptors (Rattus norvegicus)"
value_measured = "> 10 µM"

[[record]]
smiles_notation = "CNC(=O)N1N=C(c2ccc(N)cc2)c2cc(OC)c(OC)cc2C[C@H]1C"
target_under_test = "serotonergic receptors (Rattus norvegicus)"
value_measured = "> 10 µM"

[[record]]
smiles_notation = "CNC(=O)N1N=C(c2ccc(N)c(C)c2)c2cc(OC)c(OC)cc2C[C@H]1C"
target_under_test = "serotonergic receptors (Rattus norvegicus)"
value_measured = "> 10 µM"


---

melting point listing for selected compounds.
reported.endpoint: melting point

[[record]]
compound = "COc1cc2c(cc1OC)C(c1ccc(N)cc1)=NN(c1nc(C)cs1)C(C)C2 (racemic)"
reported_endpoint = "melting point"
value_measured = "122 to 124 °C"

[[record]]
compound = "COc1cc2c(cc1OC)C(c1ccc([N+](=O)[O-])cc1)=NN(c1nccs1)C(C)C2 (stereo not drawn) [Example 2]"
reported_endpoint = "melting point"
value_measured = "151 to 152 °C"

[[record]]
compound = "COc1cc2c(cc1OC)C(c1ccc([N+](=O)[O-])c(C)c1)=NN(c1nccs1)C(C)C2 (stereo not drawn) [Example 4]"
reported_endpoint = "melting point"
value_measured = "172 to 174 °C"

[[record]]
compound = "COc1cc2c(cc1OC)C(c1ccc([N+](=O)[O-])c(Cl)c1)=NN(c1nncs1)C(C)C2 (stereo not drawn) [Example 22]"
reported_endpoint = "melting point"
value_measured = "203 to 206 °C"

[[record]]
compound = "CCCNC(=O)N1N=C(c2ccc(N)cc2)c2cc(OC)c(OC)cc2C[C@H]1C"
reported_endpoint = "melting point"
value_measured = "101 to 104 °C"

[[record]]
compound = "COc1cc2c(cc1OC)C(c1ccc(N)cc1)=NN(C1=NC(=O)C(C)S1)C(C)C2 (racemic)"
reported_endpoint = "melting point"
value_measured = "184 to 188 °C"

[[record]]
compound = "CCOc1cc2c(cc1OCC)C(c1ccc(N)cc1)=NN(c1nncs1)C(C)C2 (racemic)"
reported_endpoint = "melting point"
value_measured = "108 to 113 °C"

[[record]]
compound = "COc1cc2c(cc1OC)C(c1ccc(N)cc1)=NN(c1nncs1)C(C)C2 (racemic)"
reported_endpoint = "melting point"
value_measured = "152 to 153 °C"

[[record]]
compound = "COc1cc2c(cc1OC)C(c1ccc(NC(C)=O)c(C)c1)=NN(c1nccs1)C(C)C2 (stereo not drawn)"
reported_endpoint = "melting point"
value_measured = "209 to 211 °C"

[[record]]
compound = "COc1cc2c(cc1OC)C(c1ccc(N)cc1)=NN(c1nc(C)n(C)n1)C(C)C2 (racemic)"
reported_endpoint = "melting point"
value_measured = "243 to 246 °C"

[[record]]
compound = "CNC(=O)N1N=C(c2ccc(N)cc2)c2cc(OC)c(OC)cc2CC1C (racemic)"
reported_endpoint = "melting point"
value_measured = "105 to 107 °C"

[[record]]
compound = "COc1cc2c(cc1OC)C(c1ccc(N)cc1)=NN(C(=O)N(C)C)[C@H](C)C2"
reported_endpoint = "melting point"
value_measured = "258 to 260 °C"

[[record]]
compound = "COc1cc2c(cc1OC)C(c1ccc(NC(C)=O)c(C)c1)=NN(c1nccs1)[C@H](C)C2"
reported_endpoint = "melting point"
value_measured = "229 to 231 °C"

[[record]]
compound = "COc1cc2c(cc1OC)C(c1ccc(N)c(C)c1)=NN(c1nccs1)[C@H](C)C2"
reported_endpoint = "melting point"
value_measured = "116 to 118 °C"

[[record]]
compound = "CCOc1cc2c(cc1OCC)C(c1ccc([N+](=O)[O-])cc1)=NN(C(=O)NC)C(C)C2 (stereo not drawn)"
reported_endpoint = "melting point"
value_measured = "188 to 189 °C"

[[record]]
compound = "COc1cc2c(cc1OC)C(c1ccc(N)cc1)=NN(c1nnc(C)s1)C(C)C2 (racemic)"
reported_endpoint = "melting point"
value_measured = "220 to 222 °C"

[[record]]
compound = "COc1cc2c(cc1OC)C(c1ccc(Cl)cc1)=NN(c1ncon1)C(C)C2 (stereo not drawn)"
reported_endpoint = "melting point"
value_measured = "210 to 212 °C"

[[record]]
compound = "COc1cc2c(cc1OC)C(c1ccc(N)c(Cl)c1)=NN(c1nccs1)[C@H](C)C2"
reported_endpoint = "melting point"
value_measured = "116 to 117 °C"

[[record]]
compound = "CNC(=O)N1N=C(c2ccccc2N)c2cc(OC)c(OC)cc2CC1C (racemic)"
reported_endpoint = "melting point"
value_measured = "88 to 91 °C"

[[record]]
compound = "COc1cc2c(cc1OC)C(c1ccc(N)cc1)=NN(C(=O)NC1CC1)[C@H](C)C2"
reported_endpoint = "melting point"
value_measured = "116 to 119 °C"

[[record]]
compound = "CCc1nnc(N2N=C(c3ccc(N)cc3)c3cc(OC)c(OC)cc3CC2C)s1 (racemic)"
reported_endpoint = "melting point"
value_measured = "208 to 209 °C"

[[record]]
compound = "COc1cc2c(cc1OC)C(c1cccc(Cl)c1)=NN(c1nccs1)C(C)C2 (stereo not drawn)"
reported_endpoint = "melting point"
value_measured = "125 to 126 °C"

[[record]]
compound = "COc1cc2c(cc1OC)C(c1ccc([N+](=O)[O-])cc1)=NN(C(=O)N(C)C)C(C)C2 (stereo not drawn)"
reported_endpoint = "melting point"
value_measured = "92 to 96 °C"

[[record]]
compound = "COc1cc2c(cc1OC)C(c1ccc(N)cc1)=NN(c1ncnn1C)C(C)C2 (racemic)"
reported_endpoint = "melting point"
value_measured = "160 to 162 °C"

[[record]]
compound = "COc1cc2c(cc1OC)C(c1ccc([N+](=O)[O-])c(C)c1)=NN(C1=NOCS1)C(C)C2 (stereo not drawn)"
reported_endpoint = "melting point"
value_measured = "180 to 182 °C"

[[record]]
compound = "COc1cc2c(cc1OC)C(c1ccc([N+](=O)[O-])cc1)=NN(c1nc(C)c(C)s1)C(C)C2 (stereo not drawn) [Example 9]"
reported_endpoint = "melting point"
value_measured = "190 to 192 °C"

[[record]]
compound = "COc1cc2c(cc1OC)C(c1ccc([N+](=O)[O-])c(Cl)c1)=NN(c1ncon1)C(C)C2 (stereo not drawn) [Example 46]"
reported_endpoint = "melting point"
value_measured = "206 to 208 °C"

[[record]]
compound = "COc1cc2c(cc1OC)C(c1ccc([N+](=O)[O-])c(C)c1)=NN(c1nncs1)C(C)C2 (stereo not drawn) [Example 20]"
reported_endpoint = "melting point"
value_measured = "192 to 195 °C"

[[record]]
compound = "COc1cc2c(cc1OC)C(c1ccc(N)c(Cl)c1)=NN(c1ncon1)[C@H](C)C2"
reported_endpoint = "melting point"
value_measured = "108 to 110 °C"

[[record]]
compound = "COc1cc2c(cc1OC)C(c1ccc(Cl)cc1)=NN(c1nncs1)C(C)C2 (stereo not drawn)"
reported_endpoint = "melting point"
value_measured = "203 to 204 °C"

[[record]]
compound = "CCNC(=O)N1N=C(c2ccc(N)cc2)c2cc(OC)c(OC)cc2C[C@H]1C"
reported_endpoint = "melting point"
value_measured = "122 to 124 °C"

[[record]]
compound = "CNC(=O)N1N=C(c2cccc(Cl)c2)c2cc(OC)c(OC)cc2CC1C (stereo not drawn)"
reported_endpoint = "melting point"
value_measured = "90 to 91 °C"

[[record]]
compound = "CNC(=O)N1N=C(c2ccc(N)c(C)c2)c2cc(OC)c(OC)cc2C[C@@H]1C"
reported_endpoint = "melting point"
value_measured = "157 to 159 °C"


---

tested on: apomorphine-induced climbing; test: apomorphine-induced climbing test in mice; type: in vivo, CD1 mice; settings: Mus musculus; mice, ip. 30 min before apomorphine 2 mg/kg s.c.; read-out: Climbing ED50 (mg/kg ip.)
reported.endpoint: ED50 (mg/kg)

[[record]]
compound = "CN(C)CCCN1c2ccccc2Sc2ccc(Cl)cc21 [Chlorpromazine, reference compound]"
uom = "mg/kg"
value_measured = 1.2

[[record]]
compound = "COc1cc2c(cc1OC)C(c1ccc(NC(C)=O)cc1)=NN(c1nccs1)[C@H](C)C2 [Example 183]"
uom = "mg/kg"
value_measured = 8.7

[[record]]
compound = "COc1cc2c(cc1OC)C(c1ccc(N)c(C)c1)=NN(c1nncs1)[C@H](C)C2 [Example 110]"
uom = "mg/kg"
value_measured = 14.6

[[record]]
compound = "COc1cc2c(cc1OC)C(c1ccc(N)c(C)c1)=NN(c1ncon1)[C@H](C)C2 [Example 104]"
uom = "mg/kg"
value_measured = 7.7

[[record]]
compound = "COc1cc2c(cc1OC)C(c1ccc(N)cc1)=NN(c1nccs1)[C@H](C)C2 [Example 112]"
uom = "mg/kg"
value_measured = 25

